B1: library; a variant is named by its letters at N, in order (parent)
chain: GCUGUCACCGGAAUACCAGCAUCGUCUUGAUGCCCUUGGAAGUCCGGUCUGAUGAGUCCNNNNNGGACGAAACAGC

Variants of: B1
Experiment: FACS-Seq fitted mean relative fluorescence mCherry/BFP without ligand (log10 relative fluorescence); higher = higher reporter protein expression
Assay setup: HEK293T, ligand present: no
Consider the following variants; for each one, report its FACS-Seq fitted mean (log10).

For the variant "AAUCU" , report FACS-Seq fitted mean (log10).
0.634

// fetch FACS-Seq fitted mean (log10) given entry "UAAGA"
-0.11

Answer with the recorded FACS-Seq fitted mean (log10) of "AUGUG" only.
0.254

Entry "ACCGC" needs its FACS-Seq fitted mean (log10) filled in; supply it.
1.12

Indicate the recorded FACS-Seq fitted mean (log10) value for this variant: "AAGCU"
0.983

// Input: "AUUUG" . Output its FACS-Seq fitted mean (log10) only.
0.103

Tell us which FACS-Seq fitted mean (log10) value is on record for "UACAA"
0.427

Give recorded FACS-Seq fitted mean (log10). "AUCCA"
0.993

Please report FACS-Seq fitted mean (log10) for the following variant: "UAUAA"
0.194

Quick one: give measured FACS-Seq fitted mean (log10) for "CAAAC"
0.851

Retrieve FACS-Seq fitted mean (log10) measured for "AACCA" and print it.
0.923

For "AUCUU" , write its FACS-Seq fitted mean (log10).
0.605

Input "CGAUC" , output reported FACS-Seq fitted mean (log10).
0.533

Give the reported FACS-Seq fitted mean (log10) for this variant. "CAACA"
0.729

Specify measured FACS-Seq fitted mean (log10) for "ACCUC" .
0.785

Annotate the variant "ACUGU" with its measured FACS-Seq fitted mean (log10).
0.698

Give a short answer stating reported FACS-Seq fitted mean (log10) for "UAGAA" .
-0.0982

Return value of FACS-Seq fitted mean (log10) for input "AAAUA" , no commentary.
0.648

Note FACS-Seq fitted mean (log10) for the variant shown: "AUGCC"
0.828

Query FACS-Seq fitted mean (log10) for "AGGGA"
0.303

Recall and state the measured FACS-Seq fitted mean (log10) for "UCGAC" .
0.96

Input "AUUUC" , output reported FACS-Seq fitted mean (log10).
1

Item "AAGGA" : provide FACS-Seq fitted mean (log10)
0.338

Report measured FACS-Seq fitted mean (log10); entry is "AAUUG"
0.229

Give the value of FACS-Seq fitted mean (log10) reported for the following: "UAGAG"
0.823

Identify FACS-Seq fitted mean (log10) associated with the variant "AAGAC"
0.968

Tell me measured FACS-Seq fitted mean (log10) for "UACUA" please.
0.959

Quickly give me recorded FACS-Seq fitted mean (log10) for "CUUAA"
0.633

Note FACS-Seq fitted mean (log10) for the variant shown: "GCGAU"
0.428

Give the reported FACS-Seq fitted mean (log10) for this variant. "UACGC"
0.81

Assign FACS-Seq fitted mean (log10) to the following record: "UUAUU"
0.914

Please indicate FACS-Seq fitted mean (log10) recorded for "CAGUU"
0.491

Specify FACS-Seq fitted mean (log10) for "ACUCC" and stop.
0.767

Identify the reported FACS-Seq fitted mean (log10) for the following entry. "CCAGC"
0.921

Specify measured FACS-Seq fitted mean (log10) for "UGGGA" .
-0.00768

Query FACS-Seq fitted mean (log10) for "UAUUU"
0.892

For "CCAUU" , write its FACS-Seq fitted mean (log10).
0.558

Consider the variant "UUACG" . State its measured FACS-Seq fitted mean (log10).
1.08

Give the reported FACS-Seq fitted mean (log10) for this variant. "AGGAC"
0.549

Entry "ACUCU" needs its FACS-Seq fitted mean (log10) filled in; supply it.
-0.437

Give reported FACS-Seq fitted mean (log10) value for "CCCUU"
1.13

For the variant "AGAGG" , give its measured FACS-Seq fitted mean (log10) value.
0.93

Please look at this variant and report its FACS-Seq fitted mean (log10): "UCCGU"
0.694

Given "CUAGA" , respond with its FACS-Seq fitted mean (log10).
0.973

Specify measured FACS-Seq fitted mean (log10) for "UGCCA" .
0.592

Give recorded FACS-Seq fitted mean (log10). "AUAGG"
0.526

Let me know recorded FACS-Seq fitted mean (log10) for "ACGUU" , thanks.
0.575

Consider the variant "CACUA" and give its recorded FACS-Seq fitted mean (log10).
0.228

Give a short answer stating reported FACS-Seq fitted mean (log10) for "UAAAC" .
0.86

Return FACS-Seq fitted mean (log10) (reported value) for this variant: "AGUAA"
0.346

// fetch FACS-Seq fitted mean (log10) given entry "CUCCA"
1.01

Provide one value: measured FACS-Seq fitted mean (log10) of "CGCAU"
0.678

Provide only the value of recorded FACS-Seq fitted mean (log10) for "CAGCU"
0.425

Retrieve FACS-Seq fitted mean (log10) measured for "UUGCC" and print it.
0.794

Please report the measured FACS-Seq fitted mean (log10) for "GACUG"
0.54

State its FACS-Seq fitted mean (log10) for this variant: "GAACA"
0.228

Please list FACS-Seq fitted mean (log10) recorded for the variant "AUAUU"
0.891

Identify FACS-Seq fitted mean (log10) associated with the variant "CAUUA"
0.275

Return reported FACS-Seq fitted mean (log10). Input variant: "UUGAA"
0.273

Please indicate FACS-Seq fitted mean (log10) recorded for "CAAUA"
0.192

Please indicate FACS-Seq fitted mean (log10) recorded for "AGGAA"
0.0559

For the variant "AGGCU" , give its measured FACS-Seq fitted mean (log10) value.
0.784

Answer with the recorded FACS-Seq fitted mean (log10) of "AUGUU" only.
0.847

Give FACS-Seq fitted mean (log10) for "CGGUA"
0.028

Supply FACS-Seq fitted mean (log10) value. Item: "AUAAU"
0.702

Please give the documented FACS-Seq fitted mean (log10) of "CCCCA"
0.614

State its FACS-Seq fitted mean (log10): "CGACU"
0.265

Answer with the recorded FACS-Seq fitted mean (log10) of "CGCCU" only.
0.291

Fill in FACS-Seq fitted mean (log10) for record "UCCUG"
0.994

Give a short answer stating reported FACS-Seq fitted mean (log10) for "CGGAC" .
0.877

Tell me its FACS-Seq fitted mean (log10) given "ACAAG" as the entry.
0.857

Give the measured FACS-Seq fitted mean (log10) for "UGAAU"
0.471

Fill in reported FACS-Seq fitted mean (log10) for this entry: "UUUGU"
0.965

Please indicate FACS-Seq fitted mean (log10) recorded for "UAGUA"
0.245

Annotate the variant "UAAUU" with its measured FACS-Seq fitted mean (log10).
0.64

Read the entry "CGGUC" and write its reported FACS-Seq fitted mean (log10).
1.07

Provide one value: measured FACS-Seq fitted mean (log10) of "GAUAU"
0.781

Output FACS-Seq fitted mean (log10) of "CAUGU"
0.628

Respond only with FACS-Seq fitted mean (log10) recorded for "AUGGA"
0.368

Indicate its recorded FACS-Seq fitted mean (log10); the variant in question is "UACCA"
0.405

Specify FACS-Seq fitted mean (log10) for "UCAGU" and stop.
0.741

For the variant "GAUUU" , give its reported FACS-Seq fitted mean (log10).
0.173

Fill in FACS-Seq fitted mean (log10) for record "CUACU"
0.761

State, in one line, measured FACS-Seq fitted mean (log10) of "UAGCG"
1.09

Give a short answer stating reported FACS-Seq fitted mean (log10) for "AACAU" .
0.214

Look up and state reported FACS-Seq fitted mean (log10) for "UACUC"
0.1

Find the measured FACS-Seq fitted mean (log10) of "UUCCC" and report it.
1.02

Note FACS-Seq fitted mean (log10) for the variant shown: "UAGAU"
0.687

Consider the variant "UGAUA" and give its recorded FACS-Seq fitted mean (log10).
0.374

Please indicate FACS-Seq fitted mean (log10) recorded for "UAAUA"
0.553

Input "CGCCC" , output reported FACS-Seq fitted mean (log10).
0.615
